B1: TPR 5TU (parent)
chain: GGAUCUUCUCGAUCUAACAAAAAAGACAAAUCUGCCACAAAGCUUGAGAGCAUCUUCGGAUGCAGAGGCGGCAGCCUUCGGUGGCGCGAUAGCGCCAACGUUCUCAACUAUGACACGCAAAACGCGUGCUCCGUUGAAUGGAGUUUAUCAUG

Variants of: B1
Assay: polymerase ribozyme fitness, log enrichment relative to wild type (log ratio); higher = more active; in vitro selection for triplet polymerase activity
This sample holds only a part of the variants without activity.
measurement kind: polymerase ribozyme fitness (log ratio)
One number for each entry.

Illustrative cases are given below, each with its answer.
variant annotation	polymerase ribozyme fitness (log ratio)
G59A C123A	-0.0504
C85U U151G	-4.14
A41C G83A C116A	-0.205

Answer for every listed entry: what is its polymerase ribozyme fitness (log ratio)? The entries follow.
1. A29G G42A G81A C85U
2. A17G A147U
3. U31A C69G A89U C96G U104A

1: -4.09; 2: 1.55; 3: -3.89
